ASSAY NAME: Toxicity in sheep erythrocytes assessed as induction of hemolysis
Format: cell-based, Ovis aries, Erythrocyte
STATED CONDITIONS: read-out: HD50 (the source's name)
Catalogue of HC50 readings, one per entry.

{"SMILES STR": "C=C(C)[C@@H]1CC[C@]2(CO[C@@H]3O[C@H](CO)[C@@H](O)[C@H](O)[C@H]3O)CC[C@]3(C)[C@H](CC[C@@H]4[C@@]5(C)CC[C@H](O[C@@H]6OC[C@H](O)[C@H](O)[C@H]6O)C(C)(C)[C@@H]5CC[C@]43C)[C@@H]12", "HC50": "> 100 µM"}
{"SMILES STR": "C=C(C)[C@@H]1CC[C@]2(CO[C@@H]3O[C@H](CO)[C@@H](O)[C@H](O)[C@H]3O)CC[C@]3(C)[C@H](CC[C@@H]4[C@@]5(C)CC[C@H](O[C@@H]6O[C@@H](C)[C@H](O)[C@@H](O)[C@H]6O)C(C)(C)[C@@H]5CC[C@]43C)[C@@H]12", "HC50": "> 100 µM"}
{"SMILES STR": "C=C(C)[C@@H]1CC[C@]2(C(=O)O)CC[C@]3(C)[C@H](CC[C@@H]4[C@@]5(C)CC[C@H](O[C@@H]6OC[C@H](O[C@@H]7O[C@H](CO)[C@@H](O)[C@H](O)[C@H]7O)[C@H](O)[C@H]6O[C@@H]6O[C@@H](C)[C@H](O)[C@@H](O)[C@H]6O)C(C)(C)[C@@H]5CC[C@]43C)[C@@H]12", "HC50": "94 µM"}

Please find the next compound below.
Q: I would be grateful if you could share the reported HC50 for "C=C(C)[C@@H]1CC[C@]2(C(=O)O)CC[C@]3(C)[C@H](CC[C@@H]4[C@@]5(C)CC[C@H](O[C@@H]6OC[C@H](O)[C@H](O)[C@H]6O)C(C)(C)[C@@H]5CC[C@]43C)[C@@H]12" .
Result: > 100 µM

---

ASSAY NAME: Toxicity in sheep erythrocytes assessed as induction of hemolysis
Assay type: cell-based, Ovis aries, Erythrocyte
STATED CONDITIONS: read-out: HD50 (the source's name)
MEASURE NAME: HC50

Q: Using the record for "C=C(C)[C@@H]1CC[C@]2(C(=O)O[C@@H]3O[C@H](CO)[C@@H](O)[C@H](O)[C@H]3O)CC[C@]3(C)[C@H](CC[C@@H]4[C@@]5(C)CC[C@H](O[C@@H]6O[C@H](CO)[C@@H](O)[C@H](O)[C@H]6O)C(C)(C)[C@@H]5CC[C@]43C)[C@@H]12" , report its HC50.
Result: > 100 µM

Q: CC1(C)CC[C@]2(C(=O)O)CC[C@]3(C)C(=CC[C@@H]4[C@@]5(C)CC[C@H](O[C@@H]6O[C@H](CO)[C@@H](O)[C@H](O)[C@H]6O)[C@@](C)(CO)[C@@H]5CC[C@]43C)[C@@H]2C1 [Hederagenin-3-O-beta-D-glucopyranoside] , same question.
Result: 16 µM

Q: What do we get for "C=C(C)[C@@H]1CC[C@]2(C(=O)O)CC[C@]3(C)[C@H](CC[C@@H]4[C@@]5(C)CC[C@H](O[C@@H]6O[C@@H](CO)[C@H](O)[C@H]6O)C(C)(C)[C@@H]5CC[C@]43C)[C@@H]12" ?
Result: > 100 µM

Q: Another: "C=C(C)[C@@H]1CC[C@]2(C(=O)O)CC[C@]3(C)[C@H](CC[C@@H]4[C@@]5(C)CC[C@H](O[C@H]6OC[C@@H](O)[C@@H](O)[C@@H]6O)C(C)(C)[C@@H]5CC[C@]43C)[C@@H]12"
Result: > 100 µM

---

Reported pIC50 is given for each of the following molecules.
Test system: DLD-1
ASSAY NAME: Cytotoxicity against human DLD1 cells after 48 hrs by resazurin reduction test
Type: functional, cell-based
STATED CONDITIONS: DLD-1, 48 h
pIC50: −log10 of the molar value.

Here are 7 molecules together with their reported answers.
{"SMILES STR": "C=C(C)[C@@H]1CC[C@]2(C(=O)O)CC[C@]3(C)[C@H](CC[C@@H]4[C@@]5(C)CC[C@H](O[C@@H]6OC[C@H](O)[C@H](O)[C@H]6O[C@@H]6O[C@@H](C)[C@H](O)[C@@H](O)[C@H]6O)C(C)(C)[C@@H]5CC[C@]43C)[C@@H]12", "pIC50": "< 4.00"}
{"SMILES STR": "C=C(C)[C@@H]1CC[C@]2(C(=O)O)CC[C@]3(C)[C@H](CC[C@@H]4[C@@]5(C)CC[C@H](O[C@@H]6O[C@H](CO)[C@H](O)[C@H](O)[C@H]6O)C(C)(C)[C@@H]5CC[C@]43C)[C@@H]12", "pIC50": "< 4.00"}
{"SMILES STR": "C=C(C)[C@@H]1CC[C@]2(CO)CC[C@]3(C)[C@H](CC[C@@H]4[C@@]5(C)CC[C@H](O[C@@H]6OC[C@H](O)[C@H](O)[C@H]6O[C@@H]6O[C@@H](C)[C@H](O)[C@@H](O)[C@H]6O)C(C)(C)[C@@H]5CC[C@]43C)[C@@H]12", "pIC50": "< 4.00"}
{"SMILES STR": "CC1(C)CC[C@]2(C(=O)O)CC[C@]3(C)C(=CC[C@@H]4[C@@]5(C)CC[C@H](O)[C@@](C)(CO)[C@@H]5CC[C@]43C)[C@@H]2C1", "pIC50": "< 4.00"}
{"SMILES STR": "C=C(C)[C@@H]1CC[C@]2(C(=O)O)CC[C@]3(C)[C@H](CC[C@@H]4[C@@]5(C)CC[C@H](O[C@@H]6O[C@@H](CO)[C@H](O)[C@H]6O)C(C)(C)[C@@H]5CC[C@]43C)[C@@H]12", "pIC50": "< 4.00"}
{"SMILES STR": "C=C(C)[C@@H]1CC[C@]2(CO)CC[C@]3(C)[C@H](CC[C@@H]4[C@@]5(C)CC[C@H](O[C@@H]6OC[C@H](O)[C@H](O)[C@H]6O)C(C)(C)[C@@H]5CC[C@]43C)[C@@H]12", "pIC50": "< 4.00"}
{"SMILES STR": "C=C(C)[C@@H]1CC[C@]2(C(=O)O[C@@H]3O[C@H](CO)[C@@H](O)[C@H](O)[C@H]3O)CC[C@]3(C)[C@H](CC[C@@H]4[C@@]5(C)CC[C@H](O[C@@H]6OC[C@H](O)[C@H](O)[C@H]6O[C@@H]6O[C@@H](C)[C@H](O)[C@@H](O)[C@H]6O)C(C)(C)[C@@H]5CC[C@]43C)[C@@H]12", "pIC50": "< 4.30"}

Continue with the molecule presented below.
Q: Dear colleague, I am looking for the recorded pIC50 of the following molecule: "C=C(C)[C@@H]1CC[C@]2(C(=O)O)CC[C@]3(C)[C@H](CC[C@@H]4[C@@]5(C)CC[C@H](O[C@@H]6OC[C@H](O[C@@H]7O[C@H](CO)[C@@H](O)[C@H](O)[C@H]7O)[C@H](O)[C@H]6O[C@@H]6O[C@@H](C)[C@H](O)[C@@H](O)[C@H]6O)C(C)(C)[C@@H]5CC[C@]43C)[C@@H]12"
Result: < 4.30

---

pIC50 by entry:
Tested on: DLD-1
ASSAY NAME: Cytotoxicity against human DLD1 cells after 48 hrs by resazurin reduction test
Assay type: functional, cell-based
STATED CONDITIONS: DLD-1, 48 h
pIC50: −log10 of the molar value.

Below: 2 compounds and their reported pIC50.
{"SMILES STR": "C=C(C)[C@@H]1CC[C@]2(CO)CC[C@]3(C)[C@H](CC[C@@H]4[C@@]5(C)CC[C@H](O[C@@H]6O[C@H](CO)[C@@H](O)[C@H](O)[C@H]6O)C(C)(C)[C@@H]5CC[C@]43C)[C@@H]12", "pIC50": "< 4.00"}
{"SMILES STR": "C=C(C)[C@@H]1CC[C@]2(CO)CC[C@]3(C)[C@H](CC[C@@H]4[C@@]5(C)CC[C@H](O[C@@H]6O[C@@H](CO)[C@H](O)[C@H]6O)C(C)(C)[C@@H]5CC[C@]43C)[C@@H]12", "pIC50": "< 4.00"}

Next compound, please.
Q: What does the record list as pIC50 for "CC1(C)CC[C@]2(C(=O)O)CC[C@]3(C)C(=CC[C@@H]4[C@@]5(C)CC[C@H](O)C(C)(C)[C@@H]5CC[C@]43C)[C@@H]2C1" ?
Result: < 4.00
